Would you kindly list Population Normal (%) for each of these compounds?
# Tested on: Fibroblast
# PROTOCOL: Multiplex assay against human fibroblast
# Assay type: toxicity, cell-based
# TEST CONTEXT: 12 h, 1 µM, compound concentration 1 uM, replicate 2
Value expressed in %; do not type the unit.

Record request: Population Normal (%) value, item "C[C@H](N)COC(=O)[C@@H](CCCCN)NC(=O)Cc1c(-c2ccc3ccccc3c2)[nH]c2c1ccc1ccccc12"
95

Could you do the same for "NCCc1cn(S(=O)(=O)c2c(Cl)nc3sccn23)c2ccccc12.O=C(O)C(=O)O" , please?
96

Could you do the same for "Cc1noc(-c2ccc(-c3ccc(CC(=O)O)cc3)cc2)c1NC(=O)O[C@H](C)c1ccccc1Cl" , please?
95

Could you do the same for "CC(C)c1noc(N2CCC(COc3ccc(-c4ccc(S(C)(=O)=O)cc4)nc3)CC2)n1" , please?
93

Could you do the same for "CCCCC(=O)N(Cc1ccc(-c2ccccc2-c2nnn[nH]2)cc1)[C@H](C(=O)O)C(C)C" , please?
96

Could you do the same for CCCCCC(O)/C=C/[C@H]1C(=O)CC(O)C1C/C=C\CCCC(=O)O (some centres undefined) , please?
97

Could you do the same for "O=C(CCCc1ccccc1)Nc1nc2ccccc2c(=O)s1" , please?
96

Could you do the same for "COc1ccccc1N1CCN(C[C@@H](C(=O)NC(C)(C)C)c2ccccc2)CC1.Cl.Cl" , please?
94

Could you do the same for "CC[C@@H](C)Nc1nc(C)nc2c(-c3ccc(OC)nc3C)c(C)nn12" , please?
97

Could you do the same for "COc1cccc2c1c(NS(=O)(=O)c1ccc(Cl)s1)nn2Cc1cccc(CNC(=O)C(C)(C)O)c1" , please?
100

Could you do the same for "CC(/C=C1\SC(=S)N(CCCC(=O)Nc2ccc(C(=O)O)c(O)c2)C1=O)=C\c1ccccc1" , please?
96

Could you do the same for "CCCOc1ccc2[nH]cc(C3=CCNCC3)c2n1.Cl" , please?
99

Could you do the same for "CCc1cc2cc(NS(=O)(=O)c3ccc(C#N)cc3)ccc2n(CC)c1=O" , please?
93

Could you do the same for "CC(C)COc1ccc(CNC(=O)N(Cc2ccc(F)cc2)C2CCN(C)CC2)cc1" , please?
98

Could you do the same for "CN[C@@H](C)C(=O)N[C@H](C(=O)N1CCC[C@H]1C(=O)Nc1snnc1-c1ccccc1)C1CCCCC1" , please?
93

Could you do the same for "Cc1cccc(NC(=O)CN2CCC(c3ccccn3)CC2)c1.Cl.Cl" , please?
93

Could you do the same for "CC(=O)Nc1cccc2c1c(Sc1ccc(Cl)cc1)c(C)n2CC(=O)O" , please?
96

Could you do the same for "CN1CCN(c2cc(-c3ccccc3)nc(N)n2)CC1" , please?
94

Could you do the same for "N#Cc1c(Oc2cccc(OS(=O)(=O)CCCC(F)(F)F)c2)cccc1C(F)(F)F" , please?
92
